- Tested on: Aspergillus niger
- Test name: Antifungal activity against Aspergillus niger after 24 hrs by broth microdilution method
- Format: functional
Endpoint: log10 of MIC (log10 of the value in µM)
A difference of one corresponds to tenfold MIC; all values are log10 with MIC in µM.

Compound: CC(=O)N1CCN(c2ccc(OCC3COC(Cn4ccnc4)(c4ccc(Cl)cc4Cl)O3)cc2)CC1 (stereo not drawn)
Value: 1.80

Compound: O=C(CO/N=[N+](\[O-])N1CCCC1)N1CCN(c2ccc(OC[C@H]3CO[C@](Cn4ccnc4)(c4ccc(Cl)cc4Cl)O3)cc2)CC1
Value: 1.80

Compound: Clc1ccc([C@@]2(Cn3ccnc3)OC[C@H](COc3ccc(N4CCNCC4)cc3)O2)c(Cl)c1
Value: 3.30

Compound: O=C(CO[N+](=O)[O-])N1CCN(c2ccc(OC[C@H]3CO[C@](Cn4ccnc4)(c4ccc(Cl)cc4Cl)O3)cc2)CC1
Value: 1.10

Compound: [Na+].[O-]/N=[N+](\[O-])N1CCN(c2ccc(OC[C@H]3CO[C@](Cn4ccnc4)(c4ccc(Cl)cc4Cl)O3)cc2)CC1
Value: 2.00

For the next question, use this compound.
**Q:** Check the records and state log10 of MIC for "CCO/N=[N+](\[O-])N1CCN(c2ccc(OC[C@H]3CO[C@](Cn4ccnc4)(c4ccc(Cl)cc4Cl)O3)cc2)CC1"
**A:** 0.19

---

- System: Nakaseomyces glabratus
- Test name: Ratio of MIC for drug to ketoconazole against Candida glabrata
- Type: functional
Endpoint: Ratio
In your answer, state the number alone without any accompanying words.

Record excerpt, results attached:
Smiles entry: [Na+].[O-]/N=[N+](\[O-])N1CCN(c2ccc(OC[C@H]3CO[C@](Cn4ccnc4)(c4ccc(Cl)cc4Cl)O3)cc2)CC1
Value: 1
//
Smiles entry: Clc1ccc([C@@]2(Cn3ccnc3)OC[C@H](COc3ccc(N4CCNCC4)cc3)O2)c(Cl)c1
Value: 4
//
Smiles entry: O=C(CO[N+](=O)[O-])N1CCN(c2ccc(OC[C@H]3CO[C@](Cn4ccnc4)(c4ccc(Cl)cc4Cl)O3)cc2)CC1
Value: 0.12
//
Smiles entry: COCO/N=[N+](\[O-])N1CCN(c2ccc(OC[C@H]3CO[C@](Cn4ccnc4)(c4ccc(Cl)cc4Cl)O3)cc2)CC1
Value: 0.25
//
Smiles entry: CC(C)(CO[N+](=O)[O-])C(=O)N1CCN(c2ccc(OC[C@H]3CO[C@](Cn4ccnc4)(c4ccc(Cl)cc4Cl)O3)cc2)CC1
Value: 0.25

**Q:** Let me know recorded Ratio for "O=[N+]([O-])OCCN1CCN(c2ccc(OC[C@H]3CO[C@](Cn4ccnc4)(c4ccc(Cl)cc4Cl)O3)cc2)CC1" , thanks.
**A:** 0.5

**Q:** Please supply the value of reported Ratio for the item "O=C(CO/N=[N+](\[O-])N1CCCC1)N1CCN(c2ccc(OC[C@H]3CO[C@](Cn4ccnc4)(c4ccc(Cl)cc4Cl)O3)cc2)CC1"
**A:** 1

**Q:** Hello, please tell me recorded Ratio for this one: "CCO/N=[N+](\[O-])N1CCN(c2ccc(OC[C@H]3CO[C@](Cn4ccnc4)(c4ccc(Cl)cc4Cl)O3)cc2)CC1"
**A:** 0.25

---

- System: Candida albicans
- Test name: Antifungal activity against Candida albicans after 24 hrs by broth microdilution method
- Assay type: functional
The entries below come with measured MIC values attached.

Smiles entry: O=C(CO[N+](=O)[O-])N1CCN(c2ccccc2)CC1
Measured on: Candida albicans
Endpoint: MIC
Value: > 2000 µM
//
Smiles entry: O=[N+]([O-])OCCN1CCN(c2ccccc2)CC1
Measured on: Candida albicans
Endpoint: MIC
Value: > 2000 µM

**Q:** Provide MIC value for the following compound: "CC(C)(CO[N+](=O)[O-])C(=O)N1CCN(c2ccccc2)CC1"
**A:** > 2000 µM
